Cited source: paper PMC6002460

Biological target: human GPR55 (Homo sapiens)
Construct: host or cells: CHO cells
Test: β-Arrestin PathHunter assay, recombinant CHO cells expressing GPR55
Assay type: cell-based
Conditions: agonist mode, value in parentheses
Observable: Human GPR55 % activation (%)
# unit: % | format: bare number

In: GET Human GPR55 % activation where system = human GPR55 (Homo sapiens) and item = O=C(c1cccc2ccccc12)c1nc2ccccc2n1CCCCCF [compound 42, FUBIMINA]
Out: 16

In: # return Human GPR55 % activation of CC(C)(C)[C@H](NC(=O)c1nn(Cc2ccc(F)cc2)c2ccccc12)C(N)=O [compound 24, ADB-FUBINACA] (system: human GPR55 (Homo sapiens))
Out: 7

In: Give the observed Human GPR55 % activation of CC(C)(NC(=O)c1nn(CC2CCOCC2)c2ccccc12)c1ccccc1 [compound 33] for human GPR55 (Homo sapiens).
Out: 11

In: Name the recorded Human GPR55 % activation of CC(C)(C)[C@H](NC(=O)c1cn(CCCCCF)c2ccccc12)C(N)=O [compound 21, 5F-ADBICA] , assay system human GPR55 (Homo sapiens).
Out: 8

In: Give Human GPR55 % activation for this entry on human GPR55 (Homo sapiens): O=C(Nc1cccc2ccccc12)c1cn(Cc2ccc(F)cc2)c2ccccc12 [compound 4, FDU-NNEI]
Out: 13

In: Provide Human GPR55 % activation, tested on human GPR55 (Homo sapiens), for COC(=O)[C@@H](NC(=O)c1nn(CC2CCCCC2)c2ccccc12)C(C)C [compound 10] .
Out: 2

In: Lab note: human GPR55 (Homo sapiens) assay, enter Human GPR55 % activation for O=C(c1cccc2ccccc12)c1cn(Cc2ccc(F)cc2)c2ccccc12 [compound 35, FUB-JWH-018] here
Out: 7

In: Fill in: Human GPR55 % activation on human GPR55 (Homo sapiens), entry COC(=O)[C@@H](NC(=O)c1nn(CCCCCF)c2ccccc12)C(C)C [compound 8, 5F-AMB]
Out: 14

###

Target: human CB2 receptor (Homo sapiens)
Sequence (P34972 whole entry): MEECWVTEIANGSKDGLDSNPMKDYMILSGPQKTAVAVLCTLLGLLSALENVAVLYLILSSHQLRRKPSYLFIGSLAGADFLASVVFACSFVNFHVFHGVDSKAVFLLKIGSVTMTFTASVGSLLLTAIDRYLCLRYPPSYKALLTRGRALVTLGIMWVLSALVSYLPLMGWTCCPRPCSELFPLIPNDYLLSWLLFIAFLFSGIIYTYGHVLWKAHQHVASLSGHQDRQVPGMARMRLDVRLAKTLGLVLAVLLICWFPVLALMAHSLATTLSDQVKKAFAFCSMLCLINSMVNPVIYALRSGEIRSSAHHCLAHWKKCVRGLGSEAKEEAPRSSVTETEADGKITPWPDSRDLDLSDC
pKi: −log10 of the molar value.
pKi of 8 or higher: y. Under 8: n.

In: Identify whether the reported pKi of the following compound is 8 or greater: CCCCCn1cc(C(=O)c2cccc3ccccc23)c2ccccc21 [compound 3, JWH-018, reference compound]
Out: y

In: Does CCCCCn1nc(C(=O)N[C@H](C(=O)OC)C(C)C)c2ccccc21 have a reported pKi of at least 8?
Out: y

In: Exam item: decide whether the reported pKi for O=C(c1cccc2ccccc12)c1nc2ccccc2n1CCCCCF is at least 8.
Out: n

In: Hello, I need to know if CC(C)[C@H](NC(=O)c1nn(CC2CCCCC2)c2ccccc12)C(N)=O has measured pKi not below 8. Thanks!
Out: y

In: For this compound, is measured pKi 8 or higher? CC(C)(C)[C@H](NC(=O)c1nn(Cc2ccc(F)cc2)c2ccccc12)C(N)=O
Out: y

In: Threshold query (pKi >= 8) on CC(C)(C)[C@H](NC(=O)c1cn(CC2CCCCC2)c2ccccc12)C(N)=O
Out: y

In: Test whether the compound CC(C)[C@H](NC(=O)c1cn(CCCCCF)c2ccccc12)C(N)=O records pKi of 8 or higher.
Out: n

In: Threshold query (pKi >= 8) on COC(=O)[C@@H](OC(=O)c1nn(CC2CCCCC2)c2ccccc12)C(C)(C)C
Out: y

In: Textbook exercise: given the entry CC(C)(C)[C@H](NC(=O)c1nn(CCCCCF)c2ccccc12)C(N)=O , state whether its pKi is greater than or equal to 8.
Out: y

In: Is pKi for COC(=O)[C@@H](NC(=O)c1cn(CCCCCF)c2ccccc12)C(C)C at or above 8?
Out: n

In: Please tell me: is the compound CC(C)[C@H](NC(=O)c1nn(Cc2ccccc2F)c2ccccc12)C(N)=O [compound 19, AB-FUBINACA (2-F-benzyl-isomer)] at or over 8 in terms of pKi?
Out: n

In: I'd appreciate it if you could say whether CCCCCn1cc(C(=O)NC(C)(C)c2ccccc2)c2ccccc21 has pKi at least equal to 8.
Out: n

In: Determine whether this compound has pKi no lower than 8: O=C(c1ccc(Cl)c2ccccc12)c1cn(CCCCCF)c2ccccc12
Out: y

In: Reported pKi at or above 8? COC(=O)[C@@H](NC(=O)c1nn(CC2CCCCC2)c2ccccc12)C(C)C
Out: y

In: Exam item: decide whether the reported pKi for NC(=O)[C@H](Cc1ccccc1)NC(=O)c1cn(CCCCCF)c2ccccc12 is at least 8.
Out: n

In: Please indicate if the recorded pKi for O=C(c1ccc(F)c2ccccc12)c1cn(CCCCCF)c2ccccc12 meets or exceeds 8.
Out: y

In: Dear colleague, could you confirm whether O=C(Nc1cccc2ccccc12)c1cn(Cc2ccc(F)cc2)c2ccccc12 has pKi at or above 8?
Out: n

In: Does CC(C)[C@H](NC(=O)c1nn(CCCCCF)c2ccccc12)C(N)=O have a reported pKi of at least 8?
Out: y

In: API: above_or_equal(metric=pKi, cutoff=8) for item COC(=O)[C@@H](NC(=O)c1nn(Cc2ccc(F)cc2)c2ccccc12)C(C)(C)C
Out: y

In: Does the reported pKi for COC(=O)[C@@H](NC(=O)c1nn(CCCCCF)c2ccccc12)C(C)C fall at or above the 8 mark?
Out: y

In: Confirm if pKi reported for the compound CC[C@H](C)[C@H](NC(=O)c1nn(CCCCCF)c2ccccc12)C(N)=O (single isomer, unassigned; isomer 2) [compound 26, 5F-ADB-PINACA-isomer 2] is 8 or above.
Out: y

In: Is reported pKi greater than or equal to 8 here: CC(C)(NC(=O)c1cn(CCCCCF)c2ccccc12)c1ccccc1
Out: n

In: Please tell me: is the compound CC(C)[C@H](NC(=O)c1nn(Cc2cccc(F)c2)c2ccccc12)C(N)=O [compound 18, AB-FUBINACA (3-F-benzyl-isomer)] at or over 8 in terms of pKi?
Out: n

In: Has CC(C)(C)[C@H](NC(=O)c1nn(CC2CCCCC2)c2ccccc12)C(N)=O a recorded pKi greater than or equal to 8?
Out: y

In: Assess whether reported pKi for CC(C)(NC(=O)c1nn(CC2CCOCC2)c2ccccc12)c1ccccc1 sits at 8 or higher.
Out: y

In: Dear colleague, could you confirm whether COC(=O)[C@@H](NC(=O)c1cn(CC2CCCCC2)c2ccccc12)C(C)(C)C has pKi at or above 8?
Out: y

In: # bool: pKi of CCCCCn1c2ccccc2c2cc(C(=O)c3cccc4ccccc34)ccc21 >= 8
Out: y

In: State whether the measured pKi reaches 8, counting equality as reaching it, for NC(=O)[C@H](Cc1ccccc1)NC(=O)c1nn(CC2CCCCC2)c2ccccc12
Out: y

###

Biological target: human GPR18 (Homo sapiens)
Construct: host or cells: CHO cells
Sequence (Q14330 whole entry): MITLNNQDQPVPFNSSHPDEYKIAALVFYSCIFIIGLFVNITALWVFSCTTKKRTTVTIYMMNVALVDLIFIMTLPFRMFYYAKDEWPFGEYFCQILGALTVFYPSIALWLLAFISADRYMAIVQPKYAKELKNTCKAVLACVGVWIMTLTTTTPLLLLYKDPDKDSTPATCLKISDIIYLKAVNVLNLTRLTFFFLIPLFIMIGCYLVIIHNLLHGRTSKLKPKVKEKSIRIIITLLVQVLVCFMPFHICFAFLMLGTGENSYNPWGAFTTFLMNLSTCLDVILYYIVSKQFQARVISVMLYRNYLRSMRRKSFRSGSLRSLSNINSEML
Test: β-Arrestin PathHunter assay, recombinant CHO cells expressing GPR18
Type: cell-based
pIC50: −log10 of the molar value.
Observable: pIC50

In: Quote pIC50 reported for COC(=O)[C@@H](OC(=O)c1nn(CC2CCCCC2)c2ccccc12)C(C)(C)C please.
Out: 4.90

In: Provide only the value of recorded pIC50 for COC(=O)[C@@H](NC(=O)c1nn(CCCCCF)c2ccccc12)C(C)(C)C
Out: < 5.00

In: State its pIC50: CC(C)(C)[C@H](NC(=O)c1nn(CC2CCCCC2)c2ccccc12)C(N)=O
Out: < 5.00

In: // Input: NC(=O)[C@H](Cc1ccccc1)NC(=O)c1nn(Cc2ccc(F)cc2)c2ccccc12 . Output its pIC50 only.
Out: < 5.00

###

Molecular target: human GPR55 (Homo sapiens, UniProt Q9Y2T6)
Construct: host or cells: CHO cells
Sequence (Q9Y2T6 whole entry): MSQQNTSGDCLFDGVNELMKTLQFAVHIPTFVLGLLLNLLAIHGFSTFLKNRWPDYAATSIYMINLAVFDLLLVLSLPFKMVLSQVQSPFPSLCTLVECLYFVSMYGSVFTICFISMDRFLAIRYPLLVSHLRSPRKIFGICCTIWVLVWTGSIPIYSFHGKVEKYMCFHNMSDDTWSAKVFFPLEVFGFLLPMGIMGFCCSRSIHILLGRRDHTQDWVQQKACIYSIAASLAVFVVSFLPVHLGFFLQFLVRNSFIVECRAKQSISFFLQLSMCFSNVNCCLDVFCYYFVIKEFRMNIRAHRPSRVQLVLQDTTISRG
Experiment: β-Arrestin PathHunter assay, recombinant CHO cells expressing GPR55
Assay type: cell-based
pIC50: −log10 of the molar value.
Exercise: state measured pIC50 for each of the compounds provided.

In: Dear colleague, please send me the reported pIC50 for CC(C)[C@H](NC(=O)c1nn(Cc2ccccc2F)c2ccccc12)C(N)=O [compound 19, AB-FUBINACA (2-F-benzyl-isomer)] when you can.
Out: < 5.00

In: Answer with reported pIC50 of O=C(c1ccc(F)c2ccccc12)c1cn(CCCCCF)c2ccccc12
Out: 4.66

In: Recall and state the measured pIC50 for CC(C)[C@H](NC(=O)c1nn(CCCCCF)c2ccccc12)C(N)=O .
Out: < 5.00

In: Answer with the recorded pIC50 for the compound listed here: CCCCCn1cc(C(=O)NC(C)(C)c2ccccc2)c2ccccc21
Out: < 5.00

In: In one line, give reported pIC50 of the entry COC(=O)[C@@H](NC(=O)c1nn(Cc2ccc(F)cc2)c2ccccc12)C(C)C .
Out: < 5.00

In: Supply pIC50 value. Item: NC(=O)[C@H](Cc1ccccc1)NC(=O)c1nn(CC2CCCCC2)c2ccccc12
Out: < 5.00

In: Give the reported value of pIC50 for this record: CC(C)(C)[C@H](NC(=O)c1cn(CCCCCF)c2ccccc12)C(N)=O
Out: < 5.00

In: Please list pIC50 recorded for the compound NC(=O)[C@H](Cc1ccccc1)NC(=O)c1cn(CCCCCF)c2ccccc12
Out: < 5.00

In: For CCCCCn1nc(C(=O)N[C@H](C(=O)OC)C(C)C)c2ccccc21 , write its pIC50.
Out: < 5.00

In: For the compound COC(=O)[C@@H](OC(=O)c1nn(CC2CCCCC2)c2ccccc12)C(C)(C)C , give its reported pIC50.
Out: 5.03

In: Give me measured pIC50, please, for this compound: CC(C)(C)[C@H](NC(=O)c1cn(CC2CCCCC2)c2ccccc12)C(N)=O
Out: < 5.00

In: Identify pIC50 associated with the compound O=C(Nc1cccc2ccccc12)c1cn(Cc2ccc(F)cc2)c2ccccc12
Out: < 5.00

In: Retrieve pIC50 measured for COC(=O)[C@@H](NC(=O)c1nn(CCCCCF)c2ccccc12)C(C)C and print it.
Out: < 5.00

In: Give a short answer stating reported pIC50 for CC(C)(C)[C@H](NC(=O)c1nn(Cc2ccc(F)cc2)c2ccccc12)C(N)=O .
Out: < 5.00

In: Answer with the recorded pIC50 of CC(C)[C@H](NC(=O)c1nn(Cc2cccc(F)c2)c2ccccc12)C(N)=O [compound 18, AB-FUBINACA (3-F-benzyl-isomer)] only.
Out: < 5.00

In: Note down pIC50 recorded for CCCCCn1cc(C(=O)N[C@H](C(=O)OC)C(C)C)c2ccccc21
Out: < 5.00
